Test: physchem
Assay type: physicochemical
Conditions: pH 2.4, aqueous buffer; pH about 2.4; read-out: solubility
readout_kind: solubility

Output solubility of `COc1cc(N2CCN(C3CCN(c4ccc(F)c5cccnc45)CC3)CC2)c2ncccc2c1` ~2200 µg/mL

Source: patent US20080226714A1
